experimentalSystem: beta-klotho
procedureSummary: cell-based or functional assay
endpointLabel: In Vitro Activity EC50, ELK-luciferase assay (nM)
One number for each entry, in nM.

>  <binder>
wild-type FGF21 (mature, un-PEGylated) (ligand) MHPIPDSSPLLQFGGQVRQRYLYTDDAQQTEAHLEIREDGTVGGAADQSPESLLQLKALKPGVIQILGVKTSRFLCQRPDGALYGSLHFDPEACSFRELLLEDGYNVYQSEAHGLPLHLPGNKSPHRDPAPRGPARFLPLPGLPPAPPEPPGILAPQPPDVGSSDPLSMVGPSQGRSPSYAS

>  <unitsSymbol>
nM

>  <resultNumber>
3

$$$$
>  <binder>
FGF21(K all R, R126K), 2 x 20k PEG (ligand, two 20k PEG (amine-specific): N-terminus and Lys 126) MHPIPDSSPLLQFGGQVRQRYLYTDDAQQTEAHLEIREDGTVGGAADQSPESLLQLRALRPGVIQILGVRTSRFLCQRPDGALYGSLHFDPEACSFRELLLEDGYNVYQSEAHGLPLHLPGNRSPHKDPAPRGPARFLPLPGLPPAPPEPPGILAPQPPDVGSSDPLSMVGPSQGRSPSYAS

>  <unitsSymbol>
nM

>  <resultNumber>
38

$$$$

The binder listed as FGF21(K59R/K69R/K122R), 2 x 20k PEG (ligand, two 20k PEG (amine-specific): N-terminus and the one remaining lysine (Lys 56)) MHPIPDSSPLLQFGGQVRQRYLYTDDAQQTEAHLEIREDGTVGGAADQSPESLLQLKALRPGVIQILGVRTSRFLCQRPDGALYGSLHFDPEACSFRELLLEDGYNVYQSEAHGLPLHLPGNRSPHRDPAPRGPARFLPLPGLPPAPPEPPGILAPQPPDVGSSDPLSMVGPSQGRSPSYAS shows In Vitro Activity EC50, ELK-luciferase assay equal to 499
